EXPERIMENTAL DETAILS: Apparent permeability in human Caco2 cells measured after 2 hrs by LC-MS/MS analysis
Format: ADME, cell-based, Caco-2
CONDITION SET: Caco-2
Binary classification by Papp at 2 h, with 40 nm/s as an inclusive lower bound for satisfied; all other cases are not satisfied.

For orientation, consider the following solved cases.
> print(dat)
                                     smiles    class.label
1  CCOC(=O)c1cnc2ccc(-c3ccnc(N)c3)nc2c1N[C@H]1CC[C@H](CN2CCOCC2)CC1  not satisfied
2  CCOC(=O)c1cnc2ccc(-c3cc(Cl)c(O)c(Cl)c3)nc2c1N[C@H]1CC[C@H](C(=O)N(C)C)CC1  not satisfied
3  CCOC(=O)c1cnc2ccc(-c3cc(Cl)c(O)c(Cl)c3)nc2c1NC1CCN(C)CC1      satisfied

Query block: In plain terms: is recorded Papp at 2 h at least 40 nm/s for `CCOC(=O)c1cnc2ccc(-c3cc(Cl)c(O)c(Cl)c3)nc2c1N[C@H]1CC[C@H](CC(N)=O)CC1` ?
Result block: not satisfied

* * *

# reported t1/2; entries follow
EXPERIMENTAL DETAILS: Half life in mouse liver microsomes at 1 uM preincubated for 10 mins followed by NADPH addition and measured up to 40 mins by LC-MS/MS analysis
Format: ADME, Microsome
Report the value in h with no unit label.

> print(dat)
                                     smiles  readout.units  observed.value
1  CCOC(=O)c1cnc2ccc(-c3ccnc(N)c3)nc2c1N[C@H]1CC[C@H](CN2CCOCC2)CC1              h            0.25

# evaluate next
Query block: Bench note: what t1/2 did `CCOC(=O)c1cnc2ccc(-c3cc(Cl)c(O)c(Cl)c3)nc2c1NC1CCN(C)CC1` show?
Result block: 2.15

* * *

# reported CC50; entries follow
System: HEK-293T
EXPERIMENTAL DETAILS: Cytotoxicity against human HEK293T cells transfected with DYRK1A co-tranfected with Renilla plasmid, pGL3-NFAT and NFATc1 assessed as reduction in luciferase activity by measuring cell number
Format: cell-based
CONDITION SET: hek-293t
Report the value in µM with no unit label.

Recorded results for 2 compounds are shown here.
> print(dat)
                                     smiles  observed.property  readout.units  observed.value
1  CCOC(=O)c1cnc2ccc(-c3cc(Cl)c(O)c(Cl)c3)nc2c1N[C@H]1CC[C@H](CN(C)C)CC1               CC50             µM           0.186
2  CC(=O)NC[C@H]1CC[C@H](Nc2c(CO)cnc3ccc(-c4cc(Cl)c(O)c(Cl)c4)nc23)CC1               CC50             µM            1.14

Query block: Bench note: what CC50 did `CCOC(=O)c1cnc2ccc(-c3ccncc3)nc2c1N[C@H]1CC[C@H](CN(C)C)CC1` show?
Result block: 8.05

Query block: Bench note: what CC50 did `CCCCNC(=O)c1cnc2ccc(-c3cc(Cl)c(O)c(Cl)c3)nc2c1N[C@H]1CC[C@H](CN(C)C)CC1` show?
Result block: 0.051

Query block: Bench note: what CC50 did `CCOC(=O)c1cnc2ccc(-c3cc(Cl)c(O)c(Cl)c3)nc2c1N[C@H]1CC[C@H](C(=O)N(C)C)CC1` show?
Result block: 5.9

* * *

TARGET OF ASSAY: Dual specificity tyrosine-phosphorylation-regulated kinase 1A (Homo sapiens, UniProt Q13627)
EXPERIMENTAL DETAILS: Inhibition of DYRK1A in human pancreatic islets assessed as induction of pancreatic beta-cells replication measured after 48 hrs by Hoechst 33342 staining based analysis
# reported MEC; entries follow
Phrase the answer as number then unit, nothing more needed.

Recorded results for 3 compounds are shown here.
> print(dat)
                                     smiles  observed.property  observed.value
1  CC(=O)NC[C@H]1CC[C@H](Nc2c(CO)cnc3ccc(-c4cc(Cl)c(O)c(Cl)c4)nc23)CC1                MEC          500 nM
2  CCCCNC(=O)c1cnc2ccc(-c3cc(Cl)c(O)c(Cl)c3)nc2c1N[C@H]1CC[C@H](C(=O)N2CCOCC2)CC1                MEC           63 nM
3  CCOC(=O)c1cnc2ccc(-c3cc(Cl)c(O)c(Cl)c3)nc2c1N[C@H]1CC[C@H](C(=O)N(C)C)CC1                MEC           31 nM

# evaluate next
Query block: Bench note: what MEC did `CCCCNC(=O)c1cnc2ccc(-c3cc(Cl)c(O)c(Cl)c3)nc2c1N[C@H]1CC[C@H](C(N)=O)CC1` show?
Result block: 125 nM

* * *

EXPERIMENTAL DETAILS: Cytotoxicity against mouse R7T1 cells assessed as reduction in cell viability measured after 48 hrs by Hoechst 33342 staining based analysis
OBSERVED PROPERTY: CC50 (nM)
Report the value in nM with no unit label.

Recorded results for 3 molecules are shown here.
> print(dat)
                                     smiles  observed.value
1  CCNC(=O)c1cnc2ccc(-c3ccnc(N)c3)nc2c1N[C@H]1CC[C@H](CN(C)C)CC1             330
2  CCOC(=O)c1cnc2ccc(-c3cc(Cl)c(O)c(Cl)c3)nc2c1Nc1ccc(CN(C)C)cc1             226
3  CCOC(=O)c1cnc2ccc(-c3cc(Cl)c(O)c(Cl)c3)nc2c1N[C@H]1CC[C@H](C(=O)N2CCOCC2)CC1            2080

# evaluate next
Query block: Bench note: what CC50 did `CCOC(=O)c1cnc2ccc(-c3cc(Cl)c(O)c(Cl)c3)nc2c1N[C@H]1CC[C@H](C(=O)N(C)C)CC1` show?
Result block: 2810

* * *

# reported pKd; entries follow
TARGET OF ASSAY: Dual specificity tyrosine-phosphorylation-regulated kinase 1A (Homo sapiens, UniProt Q13627)
Note: pKd values are expressed as the negative base-10 logarithm of concentration in M.

Recorded results for 4 molecules are shown here.
> print(dat)
                                     smiles  observed.value
1  CCOC(=O)c1cnc2ccc(-c3cc(Cl)c(O)c(Cl)c3)nc2c1N[C@H]1CC[C@H](CN)CC1            9.66
2  CCOC(=O)c1cnc2ccc(-c3cc(Cl)c(O)c(Cl)c3)nc2c1N[C@H]1CC[C@H](C(=O)N(C)C)CC1            9.22
3  CC(=O)c1cnc2ccc(-c3cc(Cl)c(O)c(Cl)c3)nc2c1N[C@H]1CC[C@H](CN(C)C)CC1            9.92
4  CCOC(=O)c1cnc2ccc(-c3cc(Cl)c(O)c(Cl)c3)nc2c1N[C@H]1CC[C@H](CN(C)C)CC1            9.80

# evaluate next
Query block: Bench note: what pKd did `CCCCNC(=O)c1cnc2ccc(-c3cc(Cl)c(O)c(Cl)c3)nc2c1N[C@H]1CC[C@H](CN(C)C)CC1` show?
Result block: 10.12

* * *

# reported EC50; entries follow
TARGET OF ASSAY: UniProt:Q13627
EXPERIMENTAL DETAILS: Inhibition of human DYRK1A transfected in HEK293T cells co-transfected with Renilla plasmid, pGL3-NFAT and NFATc1 assessed as derepression of NFAT-dependent luciferase activity measured after 48 hrs by luciferase assay
Report the value in nM with no unit label.

> print(dat)
                                     smiles  target.of.assay  readout.units  observed.value
1  CCCCNC(=O)c1cnc2ccc(-c3cc(Cl)c(O)c(Cl)c3)nc2c1N[C@H]1CC[C@H](C(=O)N2CCOCC2)CC1   UniProt:Q13627             nM              56
2  CCOC(=O)c1cnc2ccc(-c3cc(Cl)c(O)c(Cl)c3)nc2c1N1CCCCC1   UniProt:Q13627             nM             203
3  CCOC(=O)c1cnc2ccc(-c3ccncc3)nc2c1N[C@H]1CC[C@H](CN(C)C)CC1   UniProt:Q13627             nM             223
4  CCCCNC(=O)c1cnc2ccc(-c3cc(Cl)c(O)c(Cl)c3)nc2c1N[C@H]1CC[C@H](CN(C)C)CC1   UniProt:Q13627             nM               3
5  CCOC(=O)c1cnc2ccc(-c3ccc(C(=O)O)cc3)nc2c1N[C@H]1CC[C@H](CN(C)C)CC1   UniProt:Q13627             nM             990
6  CCOC(=O)c1cnc2ccc(-c3ccnc(O)c3)nc2c1N[C@H]1CC[C@H](CN(C)C)CC1   UniProt:Q13627             nM             383

Query block: Bench note: what EC50 did `NC(=O)[C@H]1CC[C@H](Nc2c(CO)cnc3ccc(-c4cc(Cl)c(O)c(Cl)c4)nc23)CC1` show?
Result block: 678

Query block: Bench note: what EC50 did `CC(=O)c1cnc2ccc(-c3cc(Cl)c(O)c(Cl)c3)nc2c1N[C@H]1CC[C@H](CN(C)C)CC1` show?
Result block: 5

Query block: Bench note: what EC50 did `CCOC(=O)c1cnc2ccc(-c3ccc(N)cc3)nc2c1N[C@H]1CC[C@H](CN(C)C)CC1` show?
Result block: 2100
